Entry source: ChEMBL document CHEMBL3244229

Catalogue of LD50 at 168 h readings, one per entry.
test: Acute toxicity in ip dosed ddY mouse measured after 168 hrs; assay type: organism-based; details: in vivo
RECORDED ENDPOINT: LD50 at 168 h (mg/kg)

> print(dat)
                           smiles.data  recorded.endpoint  numeric.value
1  COC(=O)Cc1cc(OC)cc(-c2ccc(Cl)cc2)c1      LD50 at 168 h           1600
2    COc1cc(CC(=O)O)cc(-c2ccc(C)cc2)c1      LD50 at 168 h            566
3  CC(C)COc1cc(CC(=O)O)cc(-c2ccccc2)c1      LD50 at 168 h            566
